Test: intrinsic fluorescence of library compounds, ex339/em460 – biochemical, MLSMR library, data from DPM-DC assay, artefact control, profiling panel (AID 709);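 also: signal is the first read of a kinetic run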
Conditions: compound autofluorescence, ex339/em460 nm, NADH buffer; at 10 µM; 1 = no-compound wells, NADH background
Among all 65,000 compounds or so, about 3,600 (5.5%) were called active.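 The calls were made as follows: active = at 10 µM, mean starting fluorescence two-fold or more over control wells; inactive = the rest.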 What follows is part of a selection rich in actives, with near analogues and random picks from the rest.
Classes used: active, inactive

[[record]]
compound = "CC(CNC(=O)c1ccc(Br)o1)NC(=O)c1ccc(Br)o1 (configuration not stated)"
answerlabel = "inactive"

[[record]]
compound = "COC(=O)c1c(NC(=O)CSc2nncs2)sc2c1CCCCC2"
answerlabel = "inactive"

[[record]]
compound = "COC(=O)c1c(NC(=O)c2cccs2)sc2c1CCCC2"
answerlabel = "active"

[[record]]
compound = "CCOCC(=O)Nc1sc2c(c1C(=O)OCC)CCCC2"
answerlabel = "inactive"

[[record]]
compound = "CN(C)CCCNC(=O)c1ccc2[nH]c3ccccc3c2c1"
answerlabel = "active"

[[record]]
compound = "CCOC(=O)c1c(NC(=O)c2cccs2)sc(C)c1C"
answerlabel = "inactive"

[[record]]
compound = "COC(=O)c1ccccc1NC(=O)c1ccccc1NS(C)(=O)=O"
answerlabel = "inactive"

[[record]]
compound = "CCc1c(C)sc(NC(=O)c2ccc(Br)o2)c1C(=O)OC"
answerlabel = "active"

[[record]]
compound = "CCOC(=O)c1c(NC(=O)c2ccc(Br)o2)sc2c1CCCC2"
answerlabel = "active"

[[record]]
compound = "Cn1c(=O)[nH]c(=O)c2c1nc(CN1CCN(c3ccccc3F)CC1)n2CCc1ccccc1"
answerlabel = "inactive"

[[record]]
compound = "COc1cc(OC)c(NC(=O)c2ccc(Br)o2)cc1Cl"
answerlabel = "inactive"

[[record]]
compound = "CCCOC(=O)Nc1sc2c(c1C(=O)OCC)CCC2"
answerlabel = "inactive"


====

Assay: intrinsic fluorescence of library compounds, ex339/em460 – biochemical, MLSMR library, data from DPM-DC assay, artefact control, profiling panel (AID 709);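 also: signal is the first read of a kinetic run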
Settings: compound autofluorescence, ex339/em460 nm, NADH buffer; at 10 µM; 1 = no-compound wells, NADH background
Hit rate of the full screen: of about 65,000 compounds, about 3,600 (5.5%) were called active.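 The calls were made as follows: active = at 10 µM, mean starting fluorescence two-fold or more over control wells; inactive = the rest.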 What follows is part of a selection rich in actives, with near analogues and random picks from the rest.
Classes used: t = active, f = inactive

[[record]]
compound = "O/N=C(\\c1ccc2c(c1)OCCO2)C1CCCCC1"
answerlabel = "f"

[[record]]
compound = "CCOC(=O)c1cc(NC(=O)SCC(=O)O)c(C)nc1C"
answerlabel = "f"

[[record]]
compound = "CCCOc1ccc(CN(CCO)CCO)cc1C(=O)OC"
answerlabel = "f"

[[record]]
compound = "O=C(Nc1ccccc1)Nc1ccccc1C(=O)NCc1ccco1"
answerlabel = "f"

[[record]]
compound = "c1ccc(COc2nsnc2N2CCOCC2)cc1"
answerlabel = "f"

[[record]]
compound = "O=c1[nH][nH]c(=O)c2cc(N3CCCC3)ccc12"
answerlabel = "t"

[[record]]
compound = "CC(C)C(c1nnnn1C1CCCC1)N1CCN(c2ccccc2F)CC1 (stereo unspecified)"
answerlabel = "f"

[[record]]
compound = "O=C1c2ccccc2-c2ncnc3c(N4CCOCC4)cc(N4CCOCC4)c1c23"
answerlabel = "f"

[[record]]
compound = "Cc1ccc(S(=O)(=O)N2CCC(C(=O)N[C@@H](C)C(=O)NCCc3ccccc3)CC2)cc1"
answerlabel = "f"

[[record]]
compound = "CCOC(=O)N1CCN(C(=O)c2ccc(S(=O)(=O)c3ccc(C)cc3)c(NC(C)=O)c2)CC1"
answerlabel = "f"

[[record]]
compound = "O=C(NCc1ccco1)c1cc(-c2cccnc2)nc2ccc(Cl)cc12"
answerlabel = "f"

